# Assay procedure: Metabolic stability in cynomolgus monkey liver microsomes assessed as compound remaining at 1 uM incubated with NADPH generating system measured after 30 mins
# Format: ADME, Macaca fascicularis, Microsome
# Measurement context: read-out: Stability
Observation type: remaining at 0.5 h, 1 µM (%)
Give bare numbers, in %.

Examples with their reported remaining at 0.5 h, 1 µM follow.
                         compound_structure  value_reported
0  CCCCNC(=O)[C@@H](C[C@H](O)[C@@H](N)CN1CC(=O)N(c2cc(F)ccc2Cl)CC1(C)C)C(C)C.O=C(O)/C=C/C(=O)O            52.2
1  CC(C)[C@H](C[C@H](O)[C@@H](N)CN1CC(=O)N(c2cc(F)ccc2Cl)CC1(C)C)C(=O)NC1CCCCC1              38
2  CCCCNC(=O)[C@@H](C[C@H](O)[C@@H](N)CN1CC(=O)N(c2ccccc2Cl)CC1(C)C)C(C)C            39.2

Now for the compound whose remaining at 0.5 h, 1 µM we want.
Lookup: Answer with the recorded remaining at 0.5 h, 1 µM of CC[C@H](C)CNC(=O)[C@@H](C[C@H](O)[C@@H](N)CN1CC(=O)N(c2cc(F)ccc2Cl)CC1(C)C)C(C)C only.
Found: 1.9

These measurements were taken from ChEMBL document CHEMBL2046414.
